Values compiled from paper PMC10233829.

Reported MIC values are given for each entry in this list.
System: K. pneumoniae 510
Assay: MIC, twofold microdilution, clinical strain
Format: cell-based, Klebsiella pneumoniae
Conditions: Klebsiella pneumoniae, 510; clinical strain, 18 h

[
  {
    "test_smiles": "O=C(O)c1cn(C2CC2)c2cc(N3CCN(C(=O)CCCl)CC3)c(F)cc2c1=O",
    "MIC": "> 25.6 µg/mL"
  },
  {
    "test_smiles": "C=CC(=O)N1CCN(c2cc3c(cc2F)c(=O)c(C(=O)O)cn3C2CC2)CC1",
    "MIC": "> 25.6 µg/mL"
  },
  {
    "test_smiles": "O=C(O)c1cn(C2CC2)c2cc(N3CCN(C(=O)C4CC4)CC3)c(F)cc2c1=O",
    "MIC": "25.6 µg/mL"
  },
  {
    "test_smiles": "O=C(O)c1cn(C2CC2)c2cc(N3CCN(C(=O)CCCCBr)CC3)c(F)cc2c1=O",
    "MIC": "6.4 µg/mL"
  },
  {
    "test_smiles": "O=C(O)c1cn(C2CC2)c2cc(N3CCN(C(=O)CCC(F)(F)F)CC3)c(F)cc2c1=O",
    "MIC": "> 25.6 µg/mL"
  },
  {
    "test_smiles": "O=C(O)c1cn(C2CC2)c2cc(N3CCN(CCCCCCCCCCC(=O)N4CCN(c5cc6c(cc5F)c(=O)c(C(=O)O)cn6C5CC5)CC4)CC3)c(F)cc2c1=O",
    "MIC": "> 25.6 µg/mL"
  },
  {
    "test_smiles": "O=C(O)c1cn(C2CC2)c2cc(N3CCN(C(=O)CCCCCCCCCCBr)CC3)c(F)cc2c1=O",
    "MIC": "> 25.6 µg/mL"
  }
]
